Molecular target: T1, human PD-L1 protein (soluble) (human, UniProt Q9NZQ7 19-239)
T1 construct: also called PD-L1 (R&D Systems); His-tagged PD-L1 protein
T1 sequence (Q9NZQ7 19-239 limits assumed): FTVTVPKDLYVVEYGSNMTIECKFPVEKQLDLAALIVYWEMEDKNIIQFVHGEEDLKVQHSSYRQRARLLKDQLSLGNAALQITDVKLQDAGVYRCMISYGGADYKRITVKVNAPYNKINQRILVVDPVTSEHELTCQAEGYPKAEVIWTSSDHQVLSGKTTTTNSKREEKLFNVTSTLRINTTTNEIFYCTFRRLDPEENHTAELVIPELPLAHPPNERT
Assay: SPR, mAb captured on anti-human IgG Fc, PD-L1 as analyte;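 also: array SPR with mAb supernatants captured at several densities, PD-L1 injected for 5 min then 15 min dissociation, non-regenerative kinetic series, double-referenced against interspot surface and blank injection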
quantity_measured: kon (M⁻¹ s⁻¹)
All answers are understood in M⁻¹ s⁻¹, so give the number only.

Query :: Note down kon recorded for antibody A10 (antibody, V domains shown, Tested as full-length mAb made in CHO cells; also called L10H10) VH: QVQLVESGGGVVQPGRSLRLSCAASGFTFSSYGMHWVRQAPGKGLEWVAVIWYDGINKYYADSVKGRFTISRDNSKNTLYLQMNSLRAEDTAVYYCARDSTASPFDYWGQGTLVTVSS VL: EIVMTQSPATLSLSPGERATLSCRASQSVSSSYLSWYQQKPGQAPRLLIYGASTRATGIPARFSGSGSGTDFTLTISSLQPEDFAVYYCQQDYNLPHTFGQGTKLEIK
Result :: 440000

Query :: Given antibody A15 (antibody, V domains shown, Tested as full-length mAb made in CHO cells; also called L15H15) VH: QLQLQESGPGLVKPSETLSLTCTVSGGSFNRSNYYWGWIRQPPGKGLEWIGSIYYSGSTYYNPSLKSRLTISADTSKTQFSLKRNSVTAADTAVYYCAREDIVVVPAAQPPHFYFGMDVWGQGTTVTVSS VL: DIQMTQSPSSLSASVGDRVTITCRASQGIRNDLGWYQQKPGKAPKRLIYAASSLQSGVPSRFSGSGSGTEFTLTISSLQPEDFATYYCLQHDSYPLTFGGGTKVEIK , respond with its kon.
Result :: 97000

Query :: Annotate the binder antibody A14 (antibody, V domains shown, Tested as full-length mAb made in CHO cells; also called L14H14) VH: QVQLVESGGGVVQPGRSLRLSCAASGFTFSSYGMHWVRQAPGKGLEWVAVIWYDGSVKYYADSVKGRFTISRDNSKNTLYLQMNSLRAEDTAVYYCARDRTGVPFDYWGQGTLVTVSS VL: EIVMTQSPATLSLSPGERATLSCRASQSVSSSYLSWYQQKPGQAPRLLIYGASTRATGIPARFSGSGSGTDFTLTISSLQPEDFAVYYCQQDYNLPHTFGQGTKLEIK with its measured kon.
Result :: 260000

New cases:
Query :: Item antibody A16 (antibody, V domains shown, Tested as full-length mAb made in CHO cells; also called L16H16) VH: QVQLVESGGGVVQPGRSLRLSCAASGFTFSSYGMHWVRQAPGKGLEWVAVIWYDGSNKYYADSVKGRFTISRDNSNDTLFLQMNSLRAEDTAVYYCARDFDWFGMDVWGQGTTVTVSS VL: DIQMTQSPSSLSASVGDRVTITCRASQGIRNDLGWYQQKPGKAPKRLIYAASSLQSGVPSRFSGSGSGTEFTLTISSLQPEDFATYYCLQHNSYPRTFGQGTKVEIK : provide kon
Result :: 140000

Query :: State its kon for this binder: antibody A9 (antibody, V domains shown, Tested as full-length mAb made in CHO cells; also called L9H9) VH: QVQLVESGGGVVQPGRSLRLSCAASGFTFSSYGMHWVRQAPGKGLEWVAVIWFDGNNKYYADSVKGRFTISRDNSKNTLYLQMNSLRAEDTAVYYCARDVTTVPFDYWGQGTLVTVSS VL: EIVMTQSPATLSLSPGERATLSCRASQSVSSSYLSWYQQKPGQAPRLLMYGASTRATGIPARFSGSGSGTDFTLTISSLQPEDFAVYYCQQDYNLPYTFGQGTKLEIK
Result :: 210000
